- Assay Method Text: Solubility in water-soluble solvent by HPLC (Test Example 2)
- Type: physicochemical
- Condition Context: 10% peg 400 aqueous, organic solvent or mixture; 10% polyethylene glycol #400 aqueous solution; read-out: Solubility, test solution C
Counter-ions that a name gives are not always drawn.
Quick rule for you: solubility at 2000 µg/mL or higher means y, lower means n.

Below, 2 compounds whose answers are already recorded.
- Compound: "Nc1ccccc1C(=O)NC(=O)Nc1ccc(Oc2ncc(Br)cn2)c(Cl)c1 [compound 1, reference compound]"
  Classification: "n"
- Compound: "CN(C)CC(=O)Nc1ccccc1C(=O)NC(=O)Nc1ccc(Oc2ncc(Br)cn2)c(Cl)c1 [Compound No. 2, hydrochloride]"
  Classification: "y"

// query Dear colleague, could you confirm whether NCC(=O)Nc1ccccc1C(=O)NC(=O)Nc1ccc(Oc2ncc(Cl)cn2)c(Cl)c1 has solubility at or above 2000 µg/mL?
// result n

// query Can you handle Cc1cc(NC(=O)NC(=O)c2ccccc2NC(=O)CN)ccc1Oc1ncc(Br)cn1 next?
// result y

// query Would you kindly repeat that for Cc1cc(NC(=O)NC(=O)c2ccccc2NC(=O)CN(C)C)ccc1Oc1ncc(Br)cn1 ?
// result y

// query Moving on to C[C@H](N)C(=O)Nc1ccccc1C(=O)NC(=O)Nc1ccc(Oc2ncc(Br)cn2)c(Cl)c1
// result y

// query Ok, now Cc1cc(NC(=O)NC(=O)c2ccccc2NC(=O)[C@H](C)N)ccc1Oc1ncc(Br)cn1
// result y

// query Then C[C@@H](N)C(=O)Nc1ccccc1C(=O)NC(=O)Nc1ccc(Oc2ncc(Br)cn2)c(Cl)c1 ?
// result y

// query // next record NCC(=O)Nc1ccccc1C(=O)NC(=O)Nc1ccc(Oc2ncc(Br)cn2)c(Cl)c1 [Compound No. 1, hydrochloride]
// result y

// query Then what about the compound NCC(=O)Nc1ccccc1C(=O)NC(=O)Nc1ccc(Oc2ncc(Cl)cn2)c(C(F)(F)F)c1 ?
// result n

// query Could you do the same for NCC(=O)NCC(=O)Nc1ccccc1C(=O)NC(=O)Nc1ccc(Oc2ncc(Br)cn2)c(Cl)c1 , please?
// result y

---

- Assay Method Text: Solubility in water-soluble solvent by HPLC (Test Example 2)
- Assay type: physicochemical
- Condition Context: physiological saline; read-out: Solubility, test solution B
Where a name gives a salt, the structure may show the parent alone.
Measured Endpoint: solubility (µg/mL)
Answers are plain numbers, in µg/mL.

- Compound: "CSCC[C@H](N)C(=O)Nc1ccccc1C(=O)NC(=O)Nc1ccc(Oc2ncc(Br)cn2)c(Cl)c1 [Compound No. 5]"
  solubility [µg/mL]: 30
- Compound: "CNCC(=O)Nc1ccccc1C(=O)NC(=O)Nc1ccc(Oc2ncc(Br)cn2)c(C)c1 [compound 53]"
  solubility [µg/mL]: 120
- Compound: "NCC(=O)Nc1ccccc1C(=O)NC(=O)Nc1ccc(Oc2ncc(Cl)cn2)c(C(F)(F)F)c1 [compound 6]"
  solubility [µg/mL]: 70
- Compound: "CN(C)CC(=O)Nc1ccccc1C(=O)NC(=O)Nc1ccc(Oc2ncc(Br)cn2)c(Cl)c1 [Compound No. 2, hydrochloride]"
  solubility [µg/mL]: 550

Would you mind giving solubility for every compound in the list below?
1. C[C@H](N)C(=O)Nc1ccccc1C(=O)NC(=O)Nc1ccc(Oc2ncc(Br)cn2)c(Cl)c1 [Compound No. 3]
2. NCC(=O)NCC(=O)Nc1ccccc1C(=O)NC(=O)Nc1ccc(Oc2ncc(Br)cn2)c(Cl)c1 [compound 8]
3. Cc1cc(NC(=O)NC(=O)c2ccccc2NC(=O)[C@H](C)N)ccc1Oc1ncc(Br)cn1 [compound 49]

// result
1. 320
2. 70
3. 1800

---

- Assay Method Text: Solubility in water-soluble solvent by HPLC (Test Example 2)
- Format: physicochemical
- Condition Context: distilled water, water; read-out: Solubility, test solution A
Measured Endpoint: solubility

The examples below pair each entry with its known result.
- Compound: "CCc1cc(NC(=O)NC(=O)c2ccccc2N)ccc1Oc1ncc(Br)cn1 [compound 3, reference compound]"
  solubility: "< 0.1 µg/mL"
- Compound: "Cc1cc(NC(=O)NC(=O)c2ccccc2NC(=O)CN)ccc1Oc1ncc(Br)cn1"
  solubility: "> 2300 µg/mL"

With those in mind, consider the next compound.
// query Which solubility is reported for this compound? Nc1ccccc1C(=O)NC(=O)Nc1ccc(Oc2ncc(Br)cn2)c(Cl)c1 [compound 1, reference compound]
// result < 0.05 µg/mL
